Origin of values: paper PMC5431875

Reported melting point values follow for various compounds

See these solved cases before continuing.
- Cc1cc(-n2cc(-c3ccc(Cl)cc3)nn2)n(-c2ccc(S(C)(=O)=O)cc2)n1: 145 to 148 °C
- Cc1cc(-n2cc(-c3ccc(C(F)(F)F)cc3)nn2)n(-c2ccc(S(C)(=O)=O)cc2)n1: 209 to 211 °C
- Cc1cc(-n2cc(CC(C)C)nn2)n(-c2ccc(S(C)(=O)=O)cc2)n1: 150 to 153 °C
- Fc1ccc(-c2cn(-c3cc(-c4ccccc4)nn3-c3ccccc3)nn2)cc1: 129 to 131 °C
- Cc1cc(-n2cc(CN3CCOCC3)nn2)n(-c2ccc(S(C)(=O)=O)cc2)n1: 172 to 174 °C
- Cc1ccc(-c2cn(-c3cc(-c4ccccc4)nn3-c3ccccc3)nn2)cc1: 125 to 127 °C

Next compound, melting point to be filled in.
What measured melting point goes with Cc1cc(N=[N+]=[N-])n(-c2ccccc2)n1 ? 123 to 125 °C

###

Biological target: recombinant human COX-2 (Homo sapiens)
Experiment: COX inhibitor assay (Cayman 700100), COX-2
Each entry below carries its reported pIC50.
Give only the number. pIC50 is defined as minus log10 of concentration in molar units.

See these solved cases before continuing.
* Cc1cc(-n2cc(-c3ccc(C(F)(F)F)cc3)nn2)n(-c2ccc(S(C)(=O)=O)cc2)n1 | 6.66
* c1ccc(-c2cn(-c3cc(-c4ccccc4)nn3-c3ccccc3)nn2)cc1 | 6.05
* Fc1ccc(-c2cn(-c3cc(-c4ccccc4)nn3-c3ccccc3)nn2)cc1 | 6.85
* COc1ccc(-c2cn(-c3cc(-c4ccccc4)nn3-c3ccccc3)nn2)cc1 | 4.82
* Cc1cc(-n2cc(CC(C)C)nn2)n(-c2ccc(S(C)(=O)=O)cc2)n1 | 5.21

Quick one: pIC50 of Cc1cc(-n2cc(-c3ccc(N)cc3)nn2)n(-c2ccccc2)n1 ? 5.07

Fill in the blank: the reported pIC50 of [N-]=[N+]=Nc1cc(-c2ccccc2)nn1-c1ccccc1 is ____. 4.74

# input compound: Cc1cc(-n2cc(-c3ccc(F)cc3)nn2)n(-c2ccc(S(C)(=O)=O)cc2)n1 ; wanted: its pIC50 7.05

###

Reported melting point values for the following molecules.

These solved cases illustrate the format of a correct answer.
* CCc1ccc(-c2cn(-c3cc(-c4ccccc4)nn3-c3ccccc3)nn2)cc1 | 130 to 133 °C
* Cc1cc(N=[N+]=[N-])n(-c2ccc(S(C)(=O)=O)cc2)n1 | 131 to 133 °C
* Clc1ccc(-c2cn(-c3cc(-c4ccccc4)nn3-c3ccccc3)nn2)cc1 | 134 to 136 °C

Tell me the measured melting point of Cc1cc(-n2cc(-c3ccccc3)nn2)n(-c2ccc(S(C)(=O)=O)cc2)n1 , please. 146 to 148 °C

###

Target protein (sequence): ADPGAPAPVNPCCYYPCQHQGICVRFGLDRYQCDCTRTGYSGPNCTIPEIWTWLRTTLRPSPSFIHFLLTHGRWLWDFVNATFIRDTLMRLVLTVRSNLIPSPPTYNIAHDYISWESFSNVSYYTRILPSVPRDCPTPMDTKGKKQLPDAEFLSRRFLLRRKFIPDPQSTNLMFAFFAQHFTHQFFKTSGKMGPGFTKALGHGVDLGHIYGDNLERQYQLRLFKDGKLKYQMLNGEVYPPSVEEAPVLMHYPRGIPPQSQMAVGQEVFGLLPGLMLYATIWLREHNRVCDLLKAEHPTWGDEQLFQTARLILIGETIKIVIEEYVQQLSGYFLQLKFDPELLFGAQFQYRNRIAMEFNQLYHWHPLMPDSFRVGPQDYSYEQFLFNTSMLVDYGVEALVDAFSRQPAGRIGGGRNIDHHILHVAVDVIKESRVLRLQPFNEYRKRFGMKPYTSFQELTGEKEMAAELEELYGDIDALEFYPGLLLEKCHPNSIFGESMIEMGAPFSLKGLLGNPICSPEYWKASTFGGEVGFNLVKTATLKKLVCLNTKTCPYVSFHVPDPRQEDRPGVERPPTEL
Below is a list of entries, each paired with its recorded IC50 value.
Unit µM implied. Number only.

* Cc1cc(-n2cc(-c3ccc(F)cc3)nn2)n(-c2ccccc2)n1 [Compound 32] | 45.5

As a next step, examine the compound that follows.
Need IC50, item Cc1cc(-n2cc(-c3ccc(N)cc3)nn2)n(-c2ccccc2)n1 [Compound 33] 57.9

###

Target: COX-2 in HCA-7 cells (Homo sapiens, UniProt P35354)
Construct: endogenous in cells
Sequence (P35354 18-604): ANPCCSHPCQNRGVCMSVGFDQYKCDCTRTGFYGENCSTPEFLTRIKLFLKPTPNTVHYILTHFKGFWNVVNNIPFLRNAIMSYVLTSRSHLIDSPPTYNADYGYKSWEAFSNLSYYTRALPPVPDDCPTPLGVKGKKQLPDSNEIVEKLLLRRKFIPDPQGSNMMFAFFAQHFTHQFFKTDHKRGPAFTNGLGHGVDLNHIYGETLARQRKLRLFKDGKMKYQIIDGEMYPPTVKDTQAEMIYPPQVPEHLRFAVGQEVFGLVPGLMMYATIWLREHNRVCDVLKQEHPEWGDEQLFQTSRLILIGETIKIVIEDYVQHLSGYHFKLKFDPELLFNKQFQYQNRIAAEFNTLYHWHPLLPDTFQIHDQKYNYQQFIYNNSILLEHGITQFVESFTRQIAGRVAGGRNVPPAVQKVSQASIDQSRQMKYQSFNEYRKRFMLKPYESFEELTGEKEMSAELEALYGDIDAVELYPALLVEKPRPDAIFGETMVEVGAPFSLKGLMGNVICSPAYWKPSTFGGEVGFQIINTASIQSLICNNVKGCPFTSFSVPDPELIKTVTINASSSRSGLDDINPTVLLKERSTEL
Test: Cellular COX-2 inhibitory activity (PGE2 ELISA) in HCA-7 cells
Conditions: mean of three determinations, read-out: Cell COX-2 IC50
value_type: IC50 (nM)
Lab book: enter the figure in nM, no units written.

A selection of reference data follows.
• CS(=O)(=O)c1ccc(-n2nc(-c3ccccc3)cc2-n2cc(-c3ccc(F)cc3)nn2)cc1 [Compound 28] = 200
• CS(=O)(=O)c1ccc(-n2nc(-c3ccccc3)cc2-n2cc(-c3ccc(N)cc3)nn2)cc1 [Compound 29] = 100
• Cc1cc(-n2cc(-c3ccc(C(F)(F)F)cc3)nn2)n(-c2ccc(S(C)(=O)=O)cc2)n1 [Compound 22] = 150
• Fc1ccc(-c2cn(-c3cc(-c4ccccc4)nn3-c3ccccc3)nn2)cc1 [Compound 9] = 2000
• Cc1cc(-n2cc(-c3ccc(N)cc3)nn2)n(-c2ccccc2)n1 [Compound 33] = 100
• Cc1ccc(-c2cn(-c3cc(-c4ccccc4)nn3-c3ccccc3)nn2)cc1 [Compound 11] = 2000

Quick check: IC50 of Cc1cc(-n2cc(-c3ccc(F)cc3)nn2)n(-c2ccc(S(C)(=O)=O)cc2)n1 [Compound 18] ? 60

Find the recorded IC50 belonging to Cc1cc(-n2cc(CN3CCOCC3)nn2)n(-c2ccc(S(C)(=O)=O)cc2)n1 [Compound 24] and report it. 700

###

Biological target: recombinant human COX-2 (Homo sapiens)
Experiment: COX inhibitor assay (Cayman 700100), COX-2
# IC50 per record follows
Hi! Could you send only the number? It should be in µM, unit omitted.

Example entries and their recorded answers appear below.
* Cc1cc(-n2cc(CN3CCCCC3)nn2)n(-c2ccc(S(C)(=O)=O)cc2)n1 | 5.2
* Cc1cc(N=[N+]=[N-])n(-c2ccc(S(C)(=O)=O)cc2)n1 | 4.4
* Cc1cc(-n2cc(CN3CCOCC3)nn2)n(-c2ccc(S(C)(=O)=O)cc2)n1 | 0.82
* Cc1ccc(-c2cn(-c3cc(C)nn3-c3ccc(S(C)(=O)=O)cc3)nn2)cc1 | 19
* Clc1ccc(-c2cn(-c3cc(-c4ccccc4)nn3-c3ccccc3)nn2)cc1 | 0.16
* CCc1ccc(-c2cn(-c3cc(-c4ccccc4)nn3-c3ccccc3)nn2)cc1 | 18
* Cc1ccc(-c2cn(-c3cc(-c4ccccc4)nn3-c3ccccc3)nn2)cc1 | 3.2
* Cc1cc(-n2cc(-c3ccc(Cl)cc3)nn2)n(-c2ccc(S(C)(=O)=O)cc2)n1 | 1.1

What value of IC50 has been reported for the following compound? Cc1cc(-n2cc(-c3ccc(F)cc3)nn2)n(-c2ccccc2)n1 12

###

Overview of recorded COX-2 SI (selectivity index) for various molecules
Biological target: recombinant human COX-2 (Homo sapiens, UniProt P35354)
Assay: COX inhibitor assay (Cayman 700100), COX-2
Conditions: (COX-1 IC50)/(COX-2 IC50)

* CS(=O)(=O)c1ccc(-n2nc(-c3ccccc3)cc2-n2cc(-c3ccc(N)cc3)nn2)cc1 | >37.0

Identify the measured COX-2 SI (selectivity index) of Clc1ccc(-c2cn(-c3cc(-c4ccccc4)nn3-c3ccccc3)nn2)cc1 for recombinant human COX-2 (Homo sapiens, UniProt P35354). >625

GET /values?readout=COX-2 SI (selectivity index)&system=recombinant human COX-2 (Homo sapiens, UniProt P35354)&item= Cc1cc(-n2cc(-c3ccc(N)cc3)nn2)n(-c2ccccc2)n1 6.73

###

Target: COX-2 in HCA-7 cells (Homo sapiens, UniProt P35354)
Construct: endogenous in cells
Assay: Cellular COX-2 inhibitory activity (PGE2 ELISA) in HCA-7 cells
Details: mean of three determinations, read-out: Cell COX-2 IC50
value_type: IC50 (µM)
Dear colleague, please return just the value in µM, with no unit written.

• Cc1cc(-n2cc(CN3CCCCC3)nn2)n(-c2ccc(S(C)(=O)=O)cc2)n1 [Compound 25] = 11
• Cc1cc(-n2cc(-c3ccc(F)cc3)nn2)n(-c2ccccc2)n1 [Compound 32] = 0.1
• Cc1cc(N=[N+]=[N-])n(-c2ccc(S(C)(=O)=O)cc2)n1 [Compound 14] = 10
• Cc1cc(-n2cc(-c3ccc(N)cc3)nn2)n(-c2ccc(S(C)(=O)=O)cc2)n1 [Compound 21] = 0.08
• c1ccc(-c2cn(-c3cc(-c4ccccc4)nn3-c3ccccc3)nn2)cc1 [Compound 7] = 3
• Clc1ccc(-c2cn(-c3cc(-c4ccccc4)nn3-c3ccccc3)nn2)cc1 [Compound 8] = 4

Let us examine a further case.
What does the record list as IC50 for Cc1cc(-n2cc(-c3ccc(Cl)cc3)nn2)n(-c2ccc(S(C)(=O)=O)cc2)n1 [Compound 17] ? 1
